Target: Recombinant human PAI-1 (Homo sapiens)
Sequence (P05121 24-402): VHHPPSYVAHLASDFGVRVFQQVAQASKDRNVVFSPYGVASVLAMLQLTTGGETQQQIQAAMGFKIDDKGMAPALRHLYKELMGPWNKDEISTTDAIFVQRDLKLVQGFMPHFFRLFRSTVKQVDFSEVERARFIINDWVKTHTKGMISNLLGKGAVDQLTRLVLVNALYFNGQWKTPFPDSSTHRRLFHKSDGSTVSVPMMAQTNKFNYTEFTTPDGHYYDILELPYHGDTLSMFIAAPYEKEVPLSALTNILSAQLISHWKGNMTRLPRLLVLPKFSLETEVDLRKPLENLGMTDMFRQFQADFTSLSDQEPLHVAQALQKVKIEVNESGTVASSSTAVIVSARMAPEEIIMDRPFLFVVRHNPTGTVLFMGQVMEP
Assay: Plasma clot lysis assay for testing of PAI-1 inhibitors (clot lysis in platelet-poor plasma)
Settings: concentration at which clot lysis time is halved (pIC50=-log IC50); platelet-poor plasma 50%, PAI-1 10-13 ng/mL, t-PA 34 ng/mL, 37° C.
Protocol: Plasma Clot Lysis Assay for Testing of PAI-1 Inhibitors CaCl2, p.a. Stock solution 0.1 M in water. PAI-1 inhibitors dissolved in 100% DMSO. Experimental Procedures—Clot Lysis in Platelet-Poor Plasma Blood from healthy fat-fasting volunteers was collected into 0.13 M trisodium citrate, 9 parts blood to 1 part anticoagulant. The tubes were centrifuged at 2000×g, 20 min, at RT. […] The plate, covered with a plastic lid, was placed in a Microplate reader (Molecular Devices, US) and gently shaken. […]
Items are presented alongside their recorded IC50.
Express the result in µM but write the number alone.

Consider the reported IC50 for these molecules:
test_smiles=CCCCCCCc1c(-c2cccc(C(F)(F)F)c2)c2n(c(=O)c1[N+](=O)[O-])[C@H](C(=O)O)CS2 target_under_test="Recombinant human PAI-1 (Homo sapiens)" assay_metric=IC50 numeric_readout=3.98
test_smiles=CCCCCCCc1cc(=O)n2c(c1-c1ccc(F)c(F)c1)SC[C@H]2C(=O)NS(C)(=O)=O target_under_test="Recombinant human PAI-1 (Homo sapiens)" assay_metric=IC50 numeric_readout=10
test_smiles=CCCCCCCc1cc(=O)n2c(c1-c1ccc(F)c(F)c1)S[C@H](OC)[C@H]2C(=O)O target_under_test="Recombinant human PAI-1 (Homo sapiens)" assay_metric=IC50 numeric_readout=10
test_smiles=CCCCCCCc1cc(=O)n2c(c1-c1ccc(F)c(F)c1)SC[C@H]2C(=O)O target_under_test="Recombinant human PAI-1 (Homo sapiens)" assay_metric=IC50 numeric_readout=15.8
test_smiles=CCCCCCCc1cc(=O)n2c(c1-c1ccc(F)c(F)c1)S[C@H](C)[C@H]2C(=O)O target_under_test="Recombinant human PAI-1 (Homo sapiens)" assay_metric=IC50 numeric_readout=3.98
test_smiles=CC(C)CCc1c(-c2cccc(C(F)(F)F)c2)c2n(c(=O)c1[N+](=O)[O-])[C@H](C(=O)O)CS2 target_under_test="Recombinant human PAI-1 (Homo sapiens)" assay_metric=IC50 numeric_readout=12.6

# context switch: different molecule, same IC50
Annotate the molecule `CCCCCCCc1cc(=O)n2c(c1-c1cccc(C(F)(F)F)c1)SC[C@H]2C(=O)NS(=O)(=O)c1ccccc1` with its measured IC50.
2.51
